Values compiled from ChEMBL document CHEMBL1150424.

assay: Selectivity index, Ratio of IC50 for L6 cells to IC50 for Trypanosoma brucei rhodesiense STIB 9
Assay type: functional
Kindly supply the reported Ratio IC50 values for the records listed here.
Keep it simple and answer with nothing but the number.

[in] Item under review: NC(=O)CN1CCC2(N3CCCCC3)CC(c3ccc(Cl)cc3)C1C(c1ccc(Cl)cc1)C2 (racemic) . Reported Ratio IC50?
[out] 24

[in] Request: COc1ccc(C2CC3(N(C)C)CCNC2C(c2ccc(OC)cc2)C3)cc1 (racemic)
[out] 174.7

[in] Next up: Clc1ccc(C2CC3(N4CCCC4)CCNC2C(c2ccc(Cl)c(Cl)c2)C3)cc1Cl (racemic)
[out] 45.8

[in] And Clc1ccc(C2CC3(N4CCCCC4)CCNC2C(c2ccc(Cl)c(Cl)c2)C3)cc1Cl (racemic) ?
[out] 55.44

[in] Field entry: CCOC(=O)CN1CCC2(N3CCCCC3)CC(c3ccc(Cl)cc3)C1C(c1ccc(Cl)cc1)C2 (racemic)
[out] 5.97

[in] Also, Cc1ccc(C2CC3(N(C)C)CCNC2C(c2ccc(C)cc2)C3)cc1 (racemic) please.
[out] 337.2

[in] Then OCCN1CCC2(N3CCCCC3)CC(c3ccc(Cl)cc3)C1C(c1ccc(Cl)cc1)C2 (racemic) ?
[out] 14.46

[in] And the next one, CN(C)C12CCN(CCN)C(C(c3ccc(Cl)cc3)C1)C(c1ccc(Cl)cc1)C2 (racemic) ?
[out] 20.44

[in] Try this molecule next: CN(C)C12CCNC(C(c3cccc4ccccc34)C1)C(c1cccc3ccccc13)C2 (racemic)
[out] 58.82

[in] Do the same for CN(C)C12CCN(CC(N)=O)C(C(c3ccc(Cl)cc3)C1)C(c1ccc(Cl)cc1)C2 (racemic) please
[out] 28.07

* * *

assay: Selectivity index, Ratio of IC50 for L6 cells to IC50 for Trypanosoma brucei rhodesiense STIB 9
Format: functional
Label scheme for Ratio IC50: lower than 70 is false, 70 and above is true.

[in] Item CN(C)C12CCNC(C(c3ccc(C(F)(F)F)cc3)C1)C(c1ccc(C(F)(F)F)cc1)C2 (racemic) with Ratio IC50 of 70 or above?
[out] true

[in] Now try NC(=O)CN1CCC2(N3CCCC3)CC(c3ccc(Cl)cc3)C1C(c1ccc(Cl)cc1)C2 (racemic) .
[out] false

[in] What about CN(C)C12CCNC(C(c3ccc(Br)cc3)C1)C(c1ccc(Br)cc1)C2 (racemic) ?
[out] true

[in] Moving on to the next compound: NCCN1CCC2(N3CCCC3)CC(c3ccc(Cl)cc3)C1C(c1ccc(Cl)cc1)C2 (racemic)
[out] false

[in] Now consider CCOC(=O)CN1CCC2(N(C)C)CC(c3ccc(Cl)cc3)C1C(c1ccc(Cl)cc1)C2 (racemic) .
[out] false

[in] Check CN(C)C12CCNC(C(c3ccc(F)cc3)C1)C(c1ccc(F)cc1)C2 (racemic) too.
[out] true

[in] Repeat for the following compound: NCCN1CCC2(N3CCCCC3)CC(c3ccc(Cl)cc3)C1C(c1ccc(Cl)cc1)C2 (racemic)
[out] false
